All figures here come from PubChem BioAssay (NCI).

Assay: NCI Yeast Anticancer Drug Screen. Data for the mlh1 rad18 strain (AID 175)
Settings: S. cerevisiae mlh1 rad18 strain growth inhibition; at 50.0 µM (retest, dose inferred, filed as 5.0)
This is part of a sample that, as a whole, favours compounds with a hit. Of some 79,000 tested, about 15% had one in any assay. Calls of active or inactive are those of the source. No stated cut-off is given here; in the data, active means growth inhibition above about 70%; inactive means the rest.
Classes used: active, inactive

- O=P(N=P(c1ccccc1)(c1ccccc1)c1ccccc1)(c1ccccc1)c1ccccc1: active
- C/C(=N/NC(N)=O)c1ccc(Cl)s1: inactive
- COc1ccc(/C(Cl)=C(/c2ccc(O)cc2)c2ccc(OCCN(C)C)cc2)cc1: inactive
- Cc1[nH]nc(-c2cccnc2)c1N=NN1CCOCC1: active
- N#CCC(=O)N/N=C(/CC1(O)C(=O)Nc2c(Cl)cc(Cl)cc21)c1ccccc1 (configuration not stated): inactive
- CC1(C)C/C(=N/NC(N)=S)C(=NO)/C(=N\NC(N)=S)C1: inactive
- O=NN(CCCl)C(=O)NCCSSCCNC(=O)N(CCCl)N=O (tested in a mixture with another compound): active

----------
Assay: NCI Yeast Anticancer Drug Screen. Data for the bub3 strain (AID 167)
Conditions: S. cerevisiae bub3 mutant strain, at 5.0 µM (retest, dose inferred, filed as 0.5), hits give high values
The panel holds about 79,000 compounds, 15% with a hit somewhere; the sample as a whole holds those more often.
// reported growth inhibition for each item listed
measurement_label: growth inhibition (%)

- CCN(CC)CCNc1ccc2nnn3c4ccccc4c(=O)c1c23: -10
- O=C(O)c1ccc([N+](=O)[O-])cc1.[Ag]: 99
- CCCCCCCCCCCC(=O)OCC1OC(OC)C(NC(=O)N(CCCl)N=O)C(O)C1O (centres undefined): 13
- O=C(c1ccccc1)C(Cl)c1ccccc1 (centres undefined): 51
- COc1cccc(/C=C2\CCCc3ccccc3C2=O)c1: 72
- CN(C)CCCC(=O)OCC[N+](C)(C)C: -1
- CN(C)c1ccc(N=Nc2ccc3c4c(cccc24)-c2ccccc2-3)cc1: 0
- CCN(CC)c1ccc(N=C2C=C(C(=O)Nc3cccc(Cl)c3)C(=O)c3ccccc32)c(C)c1: 0
- CCOC(=O)C1=C(c2ccccc2)SC(c2ccccc2)N(C(C)C)C1=O (centres undefined): 4
- N#Cc1ccc(C2Oc3ccc(Cl)cc3C=C2[N+](=O)[O-])cc1 (centres undefined): 98
- O=C(NCC#CCO)C(F)(F)F: -21
- O=Cc1nc2c3cccnc3ccc2n1Cc1ccccc1: 0
- CC(C)(C)c1c2c(c(C(C)(C)C)c3c1OCN(Cc1ccccc1)C3)OCN(Cc1ccccc1)C2: -5
- Cc1c2c(c(C)c3c4c(oc13)CCCC4)C=NCC2: -8
- CC1=NC(=Cc2cccc(Cl)c2)C(=O)N1n1c(-c2ccccc2)nc2ccccc2c1=O: -9
- COC(=O)CCC(=O)NCCc1ccc2c([nH]c3ccccc32)c1C: 5
- c1ccc2[nH]c(CN(CCN(Cc3nc4ccccc4[nH]3)Cc3nc4ccccc4[nH]3)Cc3nc4ccccc4[nH]3)nc2c1: 99
- CC(=O)Oc1ccc(N=[N+]([O-])c2ccc(OC(C)=O)cc2)cc1: -4
- COc1ccc2nc(-c3ccc(Cl)cc3)[nH]c2c1: 3
- CCN(C(=O)C(F)(F)F)c1ccc2c(c1)C(=O)c1ccccc1-2: 38
- CN(C)c1ccc(-c2c(C#N)c(S)n(NS(=O)(=O)c3ccccc3)c(=O)c2C#N)cc1: 45
- Cc1nc(N)sc1N=Nc1cc(Cl)c([N+](=O)[O-])cc1Cl: 4
- O=C1CCCCC1=C(I)I: 2
- CCOc1nc(N)nc(C)c1N=Nc1ccc(Br)cc1: 4
- Cc1nc(N)nn1C: 0
- CCOC(=O)/C(=C/c1ccc(Cl)cc1)N(CC)CC: 9
- CCN1C2=NC(=O)N(C)C(=O)C2(Cl)C(C(SC)S(=O)(=O)c2ccc(C)cc2)c2ccccc21 (centres undefined): 1
- CCC(C)COC(=O)c1ccc([N+](=O)[O-])cc1 (centres undefined): -6
- CC(O)(CO)CC(C)(O)CO (centres undefined): 2
- CC/C(=N\O)c1ccc2cc(Br)c3ccccc3c2c1: -4
- OCC(O)C(O)C(O)/C=N\Nc1ccccc1 (centres undefined): 1
- O=C(/C=C/c1ccc([N+](=O)[O-])o1)N1CCN(Cc2ccccc2)CC1: 43
- CC1CCCC(C)C1=O (centres undefined): 5
- O=c1ccc2nc3ccccc3ccc-2c1: -63
- Cn1c(=O)cc[nH]c1=O: 1
- Cc1cc(-c2ccccc2)c(C)c(-c2ccccc2)c1-c1ccccc1: -13
- Cn1c(=S)c2[nH]c(SC3CCCCC3)nc2n(C)c1=O: 52
- O=C(O)CCC(=O)NNc1ccccc1: 14
- CC1(C)S[C@@H]2[C@H](N3C(=O)c4ccccc4C3=O)CN2[C@H]1NC(=O)N[C@@H]1N2C[C@@H](N3C(=O)c4ccccc4C3=O)[C@H]2SC1(C)C: 4

----------
Assay: NCI Yeast Anticancer Drug Screen. Data for the mec2-1 strain (AID 157)
Settings: S. cerevisiae mec2-1 strain, at 5.0 µM (retest, dose inferred, filed as 0.5), hits give high values
The panel holds about 79,000 compounds, 15% with a hit somewhere; the sample as a whole holds those more often.
measurement_label: growth inhibition (%)

- CCOC(=O)C(CCOC)C(=O)OCC: 0
- CC(O)c1c2ccccc2cc2ccccc12 (stereo not given): -7
- CCCCCCCCCCCC(=O)C(=O)c1ccc(O)cc1O: 87
- Cc1c(Cl)c(S(N)(=O)=O)cc2c1NC=NS2(=O)=O: -1
- OC1c2cc(Cl)cc(Cl)c2OC2(N3CCCC3)CCCCC12 (stereo not given): 37
- Cc1ccc(S(=O)(=O)C(Br)CC(=O)c2ccccc2)cc1 (stereo not given): 67
- CCCCCCCCCCCCCCCC(=O)NCC[N+](C)(CC)CC: -6
- Cc1ccc2c(c1C)-c1c(ccc(C)c1C)C(=O)C2=O: 35
- O=C1/C(=C\c2ccccc2)CCC/C1=C\O: -46
- O=C(c1cccs1)N(C(=S)N1CCN(c2ccccn2)CC1)c1ccccc1: -8
- CCCCCCNC(=S)N/N=C(\C)c1ccccn1: 86
- O=NN(CCCl)C(=O)NCCSSCCNC(=O)N(CCCl)N=O (tested in a mixture with another compound): 20
- CNC1=C2NC(=O)/C(C)=C\C=C\C(C)C(O)C(C)C(O)C(C)C(OC(C)=O)C(C)C(OC)/C=C/OC3(C)Oc4c(C)c(O)c(c(c4C3=O)C1=O)C2=O (stereo not given): -2
- FC(F)(F)c1cc(NC(=S)SC2CCCCC2)ccc1Cl: 4
- NCCCN1c2ccccc2Sc2ccc(Cl)cc21: 12

----------
Experiment: NCI Yeast Anticancer Drug Screen. Data for the cln2 rad14 strain (AID 165);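 further: 0% = growth equal to vehicle treated cultures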
Details: S. cerevisiae cln2 rad14 strain, at 5.0 µM (retest, dose inferred, filed as 0.5)
The panel holds about 79,000 compounds, 15% with a hit somewhere; the sample as a whole holds those more often. Active and inactive are the calls of the source. Rule as the data show it: active = growth inhibition above about 70%; inactive = the rest.
Classes used: active, inactive

- CC(c1ccc(OCc2ccccc2)cc1)c1cc2c(cc1OCCO)OCO2 (stereo not given): inactive
- Fc1ccc(NC(=S)SCc2ccc(Cl)c(Cl)c2)c(F)c1: inactive
- C=C1C(=O)O[C@H]2C3C(=C(C)CC[C@@H]12)C(=O)[C@@H]1OC31C (stereo not given in full): inactive
- O=C(CC(=O)c1ccccc1NC1=Cc2ccccc2C(=O)C1=O)C(=O)NC1=C(Cl)C(=O)c2ccccc2C1=O: inactive
- C=C1C2Oc3ccccc3C1N(c1ccccc1)O2 (stereo not given): inactive
- Cc1nc2c(O)c3c(c(O)c2nc1C)C1C=CC3CC1: inactive
- OC(C/C(CNNc1ccccc1)=N/Nc1ccccc1)(C(F)(F)F)C(F)(F)F: inactive
- O=C(Nc1ccc(C(F)(F)F)cc1[N+](=O)[O-])C(=O)C(C(=O)c1ccc2ccccc2c1)C1OC(=O)c2ccccc21 (stereo not given): inactive
- c1ccc(OCC2c3ccccc3Nc3ccccc32)cc1: active
- CC(=O)OCC1OC(N2CCc3cc([N+](=O)[O-])ccc32)C(OC(C)=O)C(OC(C)=O)C1OC(C)=O (stereo not given): inactive
- S=C(Nc1ccc(Cl)c(Cl)c1)N1c2ccccc2-n2cccc2C1c1cccnc1 (stereo not given): active
- O=C(Oc1cccc2cccnc12)c1cccnc1: inactive
- CCO/C=C1\N=C(C(O)(c2ccc(Cl)cc2)c2ccc(Cl)cc2)OC1=O: inactive
- CN1CCS(=O)(=O)C1=O: inactive
- Cc1ccc(Cc2nc(=S)[nH][nH]2)cc1: inactive

----------
Assay: NCI Yeast Anticancer Drug Screen. Data for the rad50 strain (AID 155);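 further: 0% = growth of vehicle-only cultures of the same strain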
Settings: S. cerevisiae rad50 strain growth inhibition; at 50.0 µM (retest, dose inferred, filed as 5.0); hits give high values
This is part of a sample that, as a whole, favours compounds with a hit. Of some 79,000 tested, about 15% had one in any assay.
measurement_label: growth inhibition (%)

- N=C(N)Sc1ccc([N+](=O)[O-])cc1Cl: 94
- CN(C)C(=O)/N=c1\ss/c(=N\C(=S)N(C)C)n1-c1ccccc1: 78
- COc1ccc2c(c1)CN([C@@H](C)[C@H]1CC[C@H]3[C@@H]4CC[C@H]5C[C@@H](O)CC[C@]5(C)[C@H]4CC[C@]13C)CO2: 99
- OC(C/C(CNNc1ccccc1)=N/Nc1ccccc1)(C(F)(F)F)C(F)(F)F: -9
